Target: T1, SGF29 tandem tudor domain (for ITC)
T1 construct: SGF29, tandem tudor domain; the crystallisation construct is residues 115-293 of human SGF29; source: E. coli Rosetta BL21 DE3 pLysS, purified (Ni-NTA, TEV protease, Superdex 75)
T1 sequence (Q96ES7 whole entry, the tested form may be a part): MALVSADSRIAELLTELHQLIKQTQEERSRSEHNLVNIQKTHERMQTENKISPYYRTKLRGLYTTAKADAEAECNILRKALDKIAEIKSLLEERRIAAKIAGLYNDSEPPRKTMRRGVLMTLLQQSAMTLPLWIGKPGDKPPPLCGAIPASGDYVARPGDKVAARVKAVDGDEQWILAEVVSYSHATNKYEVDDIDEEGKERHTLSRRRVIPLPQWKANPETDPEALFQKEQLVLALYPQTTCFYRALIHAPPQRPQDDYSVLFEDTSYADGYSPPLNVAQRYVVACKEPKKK
Test: ITC; 350–600 μM H3K4me3 or H3C4me3 peptide titrated to 25–40 μM protein (JMJD2A–H3C4me3: 3 mM peptide to 200 μM JMJD2A); 19 injections; Microcal Auto-iTC200; one set of sites model; 5–7 repeats
Conditions: both partners purified
property-measured: Kd
Remember to follow the number with its unit.

(Q) GET /values?readout=Kd&item= ARTXQTARKS (Cme3 (neutral carba analogue of trimethyllysine, tert-butyl in place of trimethylammonium) at position 4; carboxylic acid at the C terminus) [10-mer H3C4me3 histone peptide]
(A) 1400 nM
